The reported measurements were obtained from patent EP4512427A1.

- Target: BCRP (Homo sapiens)
- Construct: host or cells: MDCK-BCRP (Preadyport)
- Test description: BCRP efflux substrate assay in MDCK-BCRP
- Type: in vitro ADME
- Run parameters: dog; MDCK-BCRP, 5µM, 60 min, pH 7.4; read-out: Papp B (acceptor) to A (donor)
Observation type: Papp B→A at 1 h, 5 µM (×10⁻⁶ cm/s)
Please respond with the number in ×10⁻⁶ cm/s and leave the unit unwritten.

Report measured Papp B→A at 1 h, 5 µM; entry is N[C@H]1CC[C@H](Nc2nc(NCc3ccc(-c4ccccn4)cc3)n3ncc(Br)c3n2)CC1
50.7

* * *

- Target: BCRP (Homo sapiens, UniProt Q9UNQ0)
- Construct: host or cells: MDCK-BCRP (Preadyport)
- Sequence (Q9UNQ0 whole entry): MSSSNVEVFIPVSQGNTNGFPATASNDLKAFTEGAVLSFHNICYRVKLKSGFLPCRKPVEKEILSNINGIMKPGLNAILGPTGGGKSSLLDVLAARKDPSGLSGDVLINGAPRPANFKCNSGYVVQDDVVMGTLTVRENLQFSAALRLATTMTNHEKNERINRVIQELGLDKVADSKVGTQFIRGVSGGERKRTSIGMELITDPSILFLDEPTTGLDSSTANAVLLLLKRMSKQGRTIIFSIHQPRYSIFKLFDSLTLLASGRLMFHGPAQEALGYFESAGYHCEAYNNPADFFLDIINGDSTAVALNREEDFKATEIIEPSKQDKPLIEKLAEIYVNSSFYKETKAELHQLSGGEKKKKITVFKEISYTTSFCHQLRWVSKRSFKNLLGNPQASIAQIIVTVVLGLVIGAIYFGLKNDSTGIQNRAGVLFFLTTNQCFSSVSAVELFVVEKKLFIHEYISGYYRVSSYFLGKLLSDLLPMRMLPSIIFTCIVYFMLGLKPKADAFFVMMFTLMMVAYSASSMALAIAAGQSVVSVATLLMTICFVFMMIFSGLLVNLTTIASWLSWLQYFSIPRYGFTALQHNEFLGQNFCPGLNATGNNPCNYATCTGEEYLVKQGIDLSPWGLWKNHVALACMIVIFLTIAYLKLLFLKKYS
- Test description: BCRP efflux substrate assay in MDCK-BCRP
- Format: in vitro ADME
- Run parameters: dog; MDCK-BCRP, 5µM, 60 min, pH 7.4; read-out: Papp A (donor) to B (acceptor)
Observation type: Papp A→B at 60 min, 5 µM (×10⁻⁶ cm/s)
State the answer as a number, implicitly in ×10⁻⁶ cm/s.

Example entries begin here.
Check the records and state Papp A→B at 60 min, 5 µM for CC[C@@]1(O)C(=O)OCc2c1cc1n(c2=O)Cc2c-1nc1cc(F)c(C)c3c1c2[C@@H](N)CC3 [Exatecan, reference compound]
1.43

Please report the measured Papp A→B at 60 min, 5 µM for N[C@H]1CCC[C@@H]1Nc1nc(NCc2ccc(-c3ccccn3)cc2)n2ncc(Br)c2n1 [Compound 2668]
10.2

Supply Papp A→B at 60 min, 5 µM value. Item: NCCCCNc1nc(NCc2ccc(-c3ccccn3)cc2)n2ncc(Br)c2n1 [Compound 2585]
1.75

Supply reported Papp A→B at 60 min, 5 µM belonging to this compound: Brc1cnn2c(NCc3ccc(-c4ccccn4)cc3)nc(NC[C@@H]3CCCN3)nc12 [Compound 2571]
7.09

// Input: NC[C@H]1CC[C@H](Nc2nc(NCc3ccc(-c4ccccn4)cc3)n3ncc(Br)c3n2)CC1 [Compound 2636] . Output its Papp A→B at 60 min, 5 µM only.
3

Others:
Consider the compound N[C@H]1CCN(c2nc(NCc3ccc(-c4ccccn4)cc3)n3ncc(Br)c3n2)C1 [Compound 2655] . State its measured Papp A→B at 60 min, 5 µM.
11.1

Output Papp A→B at 60 min, 5 µM of NCC1CCN(c2nc(NCc3ccc(-c4ccccn4)cc3)n3ncc(Br)c3n2)CC1 [Compound 2560]
7.53

Recall and state the measured Papp A→B at 60 min, 5 µM for N[C@H]1CCC[C@@H](Nc2nc(NCc3ccc(-c4ccccn4)cc3)n3ncc(Br)c3n2)C1 [Compound 2670] .
5.02

Quote Papp A→B at 60 min, 5 µM reported for CNCCN(C)c1nc(NCc2ccc(-c3ccccn3)cc2)n2ncc(Br)c2n1 [Compound 2605] please.
30.9

Please report the measured Papp A→B at 60 min, 5 µM for N[C@H]1CC[C@@H](Nc2nc(NCc3ccc(-c4ccccn4)cc3)n3ncc(Br)c3n2)CC1 [Compound 2568]
2.52

Answer with the recorded Papp A→B at 60 min, 5 µM of N[C@H]1CCCC[C@@H]1Nc1nc(NCc2ccc(-c3ccccn3)cc2)n2ncc(Br)c2n1 [Compound 2671] only.
10.1

Note down Papp A→B at 60 min, 5 µM recorded for CN(CCN)c1nc(NCc2ccc(-c3ccccn3)cc2)n2ncc(Br)c2n1 [Compound 2600]
22.4
